- System Under Test: CDK6/cyclin D1 (Homo sapiens (Human), UniProt Q00534)
- Sequence (Q00534 whole entry): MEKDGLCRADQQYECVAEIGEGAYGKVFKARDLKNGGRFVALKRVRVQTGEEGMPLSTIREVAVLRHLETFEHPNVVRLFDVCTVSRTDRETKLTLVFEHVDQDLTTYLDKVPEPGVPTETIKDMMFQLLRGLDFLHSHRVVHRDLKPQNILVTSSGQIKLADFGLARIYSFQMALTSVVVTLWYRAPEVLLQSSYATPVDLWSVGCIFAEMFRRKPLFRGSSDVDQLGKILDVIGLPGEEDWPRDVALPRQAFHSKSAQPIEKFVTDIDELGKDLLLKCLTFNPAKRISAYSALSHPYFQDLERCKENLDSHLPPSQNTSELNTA
- Sequence (P24385 whole entry partner): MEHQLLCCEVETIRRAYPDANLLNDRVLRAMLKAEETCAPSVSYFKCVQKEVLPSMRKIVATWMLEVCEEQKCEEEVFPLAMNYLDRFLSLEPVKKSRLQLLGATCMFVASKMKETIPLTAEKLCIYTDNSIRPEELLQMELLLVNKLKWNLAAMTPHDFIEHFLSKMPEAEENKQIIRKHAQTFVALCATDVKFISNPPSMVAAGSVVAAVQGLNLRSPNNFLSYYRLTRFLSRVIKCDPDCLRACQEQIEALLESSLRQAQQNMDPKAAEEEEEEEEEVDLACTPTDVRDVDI
- Assay Comment: CDK6 Caliper Mobility Shift assay
- Method: A Caliper Mobility Shift assay was used to determine the inhibitory activities of a compound against CDK4/cyclin D1 and CDK6/cyclin D1 in their respective kinase buffers (CDK4: 20 mM HEPES, pH 7.5, and 0.01% Triton X-100; CDK6: 50 mM HEPES, pH 7.5, and 0.0015% BRIJ-35). The CDK4/cyclin D1 and CDK6/cyclin D1 were obtained from PROQINASE and CARNA, respectively. A FAM-labeled peptide was obtained from GL. […]
pIC50: −log10 of the molar value.
Entries and their pIC50

{"Molecule": "CC(=O)c1c(C)c2cnc(Nc3ccc(N4CCN(S(=O)(=O)NC(=O)C5CCCO5)CC4)cn3)nc2n(C2CCCC2)c1=O (stereo not shown)", "pIC50": "6.30 to 6.70"}
{"Molecule": "COC(=O)NS(=O)(=O)N1CCN(c2ccc(Nc3ncc4c(C)c(C(C)=O)c(=O)n(C5CCCC5)c4n3)nc2)CC1", "pIC50": "≥ 6.70"}

Ask: Requested field: pIC50. Item: CNS(=O)(=O)N1CCN(c2ccc(Nc3ncc4c(C)c(C(C)=O)c(=O)n(C5CCCC5)c4n3)nc2)CC1
Reply: 6.30 to 6.70

Ask: Requested field: pIC50. Item: CC(=O)c1c(C)c2cnc(Nc3ccc(N4CCN(S(N)(=O)=O)CC4)cn3)nc2n(C2CCCC2)c1=O
Reply: 6.30 to 6.70

Ask: Requested field: pIC50. Item: CC(=O)c1c(C)c2cnc(Nc3ccc(N4CCN(S(=O)(=O)NC(=O)C5CC5)CC4)cn3)nc2n(C2CCCC2)c1=O
Reply: ≥ 6.70

Ask: Requested field: pIC50. Item: CC(=O)c1c(C)c2cnc(Nc3ccc(N4CCN(S(=O)(=O)NC(=O)C5CCOCC5)CC4)cn3)nc2n(C2CCCC2)c1=O
Reply: ≥ 6.70

Ask: Requested field: pIC50. Item: CC(=O)c1c(C)c2cnc(Nc3ccc(N4CCN(S(=O)(=O)NC(=O)OCC(=O)O)CC4)cn3)nc2n(C2CCCC2)c1=O
Reply: ≥ 6.70

----------
Entries and their pIC50
- System Under Test: CDK4/cyclin D1 (Homo sapiens (Human))
- Sequence (P11802 whole entry): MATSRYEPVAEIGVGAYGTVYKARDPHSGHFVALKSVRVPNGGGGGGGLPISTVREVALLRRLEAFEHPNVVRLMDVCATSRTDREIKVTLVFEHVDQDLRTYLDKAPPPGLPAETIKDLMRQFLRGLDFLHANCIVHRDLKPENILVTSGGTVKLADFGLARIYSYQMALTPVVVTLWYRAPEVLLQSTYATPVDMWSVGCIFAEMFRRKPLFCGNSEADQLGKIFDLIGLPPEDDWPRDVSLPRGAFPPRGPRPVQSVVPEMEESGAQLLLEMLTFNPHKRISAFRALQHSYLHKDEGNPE
- Sequence (P24385 whole entry partner): as the sequence (P24385 whole entry partner) above
- Assay Comment: CDK4 Caliper Mobility Shift assay
- Assay type: biochemical
pIC50: −log10 of the molar value.

{"Compound": "CNS(=O)(=O)N1CCN(c2ccc(Nc3ncc4c(C)c(C(C)=O)c(=O)n(C5CCCC5)c4n3)nc2)CC1 [Compound A46]", "Result": "≥ 6.70"}
{"Compound": "CC(=O)c1c(C)c2cnc(Nc3ccc(N4CCN(S(=O)(=O)OCOC(=O)C(C)(C)C)CC4)cn3)nc2n(C2CCCC2)c1=O [Compound B1]", "Result": "≥ 6.70"}

Ask: Write down the reported pIC50 of CC(=O)c1c(C)c2cnc(Nc3ccc(N4CCN(S(=O)(=O)N5CC(CO)OC5=O)CC4)cn3)nc2n(C2CCCC2)c1=O (centres unmarked) [Compound A12] , test system: CDK4/cyclin D1 (Homo sapiens (Human)).
Reply: ≥ 6.70

Ask: Write down the reported pIC50 of CC(=O)c1c(C)c2cnc(Nc3ccc(N4CCN(S(=O)(=O)C(C)C)CC4)cn3)nc2n(C2CCCC2)c1=O [Compound C1] , test system: CDK4/cyclin D1 (Homo sapiens (Human)).
Reply: ≥ 6.70
